Values from patent US12374423B2

# TARGET_DESC: MHCII (I-A^b) of murine bone marrow-derived dendritic cells (Mus musculus, UniProt P14434+P14483)
# Construct: immunoprecipitation of mature peptide-MHCII complexes with monoclonal Y3P antibody; endogenous in cells; host or cells: primary BMDCs from C57/BL6 (WT) mice, exposed to live L. monocytogenes EGDe
# Sequence (P14434 24-256): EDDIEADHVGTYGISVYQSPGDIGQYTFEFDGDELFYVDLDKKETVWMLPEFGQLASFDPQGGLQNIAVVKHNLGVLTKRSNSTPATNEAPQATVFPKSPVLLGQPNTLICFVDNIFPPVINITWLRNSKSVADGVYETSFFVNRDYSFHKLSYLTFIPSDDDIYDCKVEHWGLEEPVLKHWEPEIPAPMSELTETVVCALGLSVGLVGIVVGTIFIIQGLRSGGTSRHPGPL
# Sequence (P14483 28-265): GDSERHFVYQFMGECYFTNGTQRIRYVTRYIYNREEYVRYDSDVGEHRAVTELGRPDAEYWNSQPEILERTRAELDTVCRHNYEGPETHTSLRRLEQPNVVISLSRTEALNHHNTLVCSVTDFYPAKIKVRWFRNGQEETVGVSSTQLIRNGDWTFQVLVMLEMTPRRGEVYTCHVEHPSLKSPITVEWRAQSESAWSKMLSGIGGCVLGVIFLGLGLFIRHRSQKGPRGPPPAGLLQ
# ASSAY_OVERVIEW: MHCII peptidomics of BMDCs exposed to live Listeria (iTRAQ LC-MS/MS of MHCII-associated peptides)
# Assay type: cell-based
# RUN_CONDITIONS: MHCII-bound peptide abundance, BMDCs, 6 hr versus 10 min after Listeria exposure
QUANTITY_MEASURED: logFC (Log2 Fold Change Listeria 6 hr versus 10 min)
Answer field: number only, no words.

Solved cases (4 shown):
>>> df
                                  substance  quantitative_readout
0  14980 (WNEKYAQAYPNVS; Listeria sp) [compound 14980]                 1.377
1  15026 (ESVYLSAQKENPRLFAKIETF; Listeria sp) [compound 15026]                0.5951
2  14981 (WNEKYAQAYPNVSAKI; Listeria sp) [compound 14981]                 1.202
3  15016 (SNVNHVLDIGYGGGSNVKN; Listeria sp) [compound 15016]                 0.227

q: Query logFC (Log2 Fold Change Listeria 6 hr versus 10 min) for 14983 (ERWNEKYAQAYPNVS; Listeria sp) [compound 14983]
a: 0.2069

q: Check the records and state logFC (Log2 Fold Change Listeria 6 hr versus 10 min) for 14985 (VWTKPNKIEGAQKISALSTY; Listeria sp) [compound 14985]
a: -0.2625

q: Look up and state reported logFC (Log2 Fold Change Listeria 6 hr versus 10 min) for 14995 (EVEDLNQPLAAHVNYE; Listeria sp) [compound 14995]
a: 0.1526

q: Tell me its logFC (Log2 Fold Change Listeria 6 hr versus 10 min) given 15027 (RDNYLFQLYEATGTPIHPMSPF; Listeria sp) [compound 15027] as the entry.
a: -0.05049

q: Tell me logFC (Log2 Fold Change Listeria 6 hr versus 10 min) reported for 15022 (MNRVMLPLQQMGAKMHGK; Listeria sp) [compound 15022]
a: 0.1447
